Quick reference: IC50 of the listed items.
Target: BACE1 (Homo sapiens, UniProt P56817)
Sequence (P56817 46-501): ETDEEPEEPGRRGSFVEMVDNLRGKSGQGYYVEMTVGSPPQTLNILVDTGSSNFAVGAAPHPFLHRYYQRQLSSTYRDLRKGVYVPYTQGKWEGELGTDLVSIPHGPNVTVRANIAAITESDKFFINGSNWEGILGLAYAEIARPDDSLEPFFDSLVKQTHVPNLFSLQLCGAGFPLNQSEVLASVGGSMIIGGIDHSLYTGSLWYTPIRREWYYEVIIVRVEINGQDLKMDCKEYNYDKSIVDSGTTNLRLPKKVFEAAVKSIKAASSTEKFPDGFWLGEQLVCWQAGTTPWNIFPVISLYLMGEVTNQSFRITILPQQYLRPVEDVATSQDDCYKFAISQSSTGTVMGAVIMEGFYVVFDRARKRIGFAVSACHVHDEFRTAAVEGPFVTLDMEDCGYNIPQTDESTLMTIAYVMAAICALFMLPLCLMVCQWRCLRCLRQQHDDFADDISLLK
Experiment: BACE1 cell-free assay (BACE1 enzyme assay)
Assay type: biochemical
Could you write the number and then its unit?

Query string: Can you look up the measured IC50 of Cc1cc(C#N)cnc1C(=O)Nc1ccc(F)c([C@@]2(C)N=C(N)O[C@H](C(F)(F)F)C2(F)F)n1 for me?
Result string: 19 nM

###

Quick reference: Human P-gp ER of the listed items.
Biological target: UniProt:P08183
Sequence (P08183 whole entry): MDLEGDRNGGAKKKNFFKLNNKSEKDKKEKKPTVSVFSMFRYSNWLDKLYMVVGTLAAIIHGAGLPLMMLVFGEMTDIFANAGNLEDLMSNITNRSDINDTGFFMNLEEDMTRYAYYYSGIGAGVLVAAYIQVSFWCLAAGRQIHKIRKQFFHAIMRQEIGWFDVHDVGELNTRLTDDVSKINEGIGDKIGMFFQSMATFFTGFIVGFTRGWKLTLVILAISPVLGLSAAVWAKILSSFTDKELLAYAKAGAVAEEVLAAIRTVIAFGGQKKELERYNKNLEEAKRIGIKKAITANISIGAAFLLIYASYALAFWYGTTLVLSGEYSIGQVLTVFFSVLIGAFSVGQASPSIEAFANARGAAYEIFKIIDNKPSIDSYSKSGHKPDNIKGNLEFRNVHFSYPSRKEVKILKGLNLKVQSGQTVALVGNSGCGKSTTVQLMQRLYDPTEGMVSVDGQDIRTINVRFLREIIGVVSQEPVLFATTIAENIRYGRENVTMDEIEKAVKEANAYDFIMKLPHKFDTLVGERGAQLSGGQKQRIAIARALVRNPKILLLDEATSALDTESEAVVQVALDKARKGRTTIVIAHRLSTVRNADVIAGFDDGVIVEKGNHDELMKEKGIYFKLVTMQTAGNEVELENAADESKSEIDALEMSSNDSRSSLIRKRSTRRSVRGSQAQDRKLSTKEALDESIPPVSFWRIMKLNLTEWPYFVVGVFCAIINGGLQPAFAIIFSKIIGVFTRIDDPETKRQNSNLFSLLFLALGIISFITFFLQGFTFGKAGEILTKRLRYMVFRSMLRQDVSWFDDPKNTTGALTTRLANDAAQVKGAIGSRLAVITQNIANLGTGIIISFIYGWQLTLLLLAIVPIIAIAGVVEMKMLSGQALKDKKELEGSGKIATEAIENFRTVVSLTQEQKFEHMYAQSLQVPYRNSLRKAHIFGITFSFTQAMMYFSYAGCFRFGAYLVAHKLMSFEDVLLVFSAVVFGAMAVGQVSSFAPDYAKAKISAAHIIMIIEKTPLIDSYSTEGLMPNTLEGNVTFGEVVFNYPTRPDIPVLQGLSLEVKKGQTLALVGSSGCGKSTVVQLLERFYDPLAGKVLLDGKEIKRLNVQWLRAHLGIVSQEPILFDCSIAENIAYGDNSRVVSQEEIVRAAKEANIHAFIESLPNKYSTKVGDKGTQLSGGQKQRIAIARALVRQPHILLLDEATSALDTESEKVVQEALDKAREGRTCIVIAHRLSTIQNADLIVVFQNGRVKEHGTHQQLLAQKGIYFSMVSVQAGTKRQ
Assay: P-gp transport assay (human)
Type: in vitro ADME
Settings: efflux ratio
Lab note: jot the number down without any unit.

C[C@]1(c2nc(NC(=O)c3ccc(C#N)cn3)ccc2F)N=C(N)O[C@H](C(F)(F)F)[C@@H]1F [Comparator 6]    1.1
C[C@]1(c2nc(NC(=O)c3ccc(C#N)cn3)ccc2F)N=C(N)O[C@H](C(F)(F)F)C1(F)F [Comparator 1]    1.4
Cc1cc(C#N)cnc1C(=O)Nc1ccc(F)c([C@]2(C)C[C@@H](C(F)(F)F)OC(N)=N2)n1 [Comparator 5]    3.3

Consider the additional compound presented here.
Query string: Can you look up the measured Human P-gp ER of Cc1cc(C#N)cnc1C(=O)Nc1ccc(F)c([C@@]2(C)N=C(N)O[C@H](C(F)(F)F)[C@@H]2F)n1 [Example 1] for me?
Result string: 1.7
